Some molecules, each annotated with its measured pIC50.
Target: UniProt P25774
Sequence (P25774 whole entry): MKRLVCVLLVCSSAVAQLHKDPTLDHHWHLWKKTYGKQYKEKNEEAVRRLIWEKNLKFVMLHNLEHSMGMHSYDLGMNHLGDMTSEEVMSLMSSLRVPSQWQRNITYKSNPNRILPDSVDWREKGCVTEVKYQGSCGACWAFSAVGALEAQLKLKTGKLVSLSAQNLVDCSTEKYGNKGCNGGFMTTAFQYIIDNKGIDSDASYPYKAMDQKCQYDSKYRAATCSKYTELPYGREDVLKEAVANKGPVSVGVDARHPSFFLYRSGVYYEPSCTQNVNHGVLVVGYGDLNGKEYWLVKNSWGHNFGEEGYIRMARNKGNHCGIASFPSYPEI
Assay: Inhibition of cathepsin S assessed as inhibition of fluorogenic substrate cleavage
When answering, recall that pIC50 equals minus log10 of the concentration in mol/L, and write that number alone.

# compound, pIC50
measured = [
    ("Cn1nc(C(C)(C)C)cc1C(=O)N[C@@H](Cc1cccc(-c2nnc(CO)o2)c1)C(=O)NCC#N", 7.20),
    ("N#CCNC(=O)[C@H](Cc1cccc(-c2nnco2)c1)NC(=O)c1ccccc1", 7.70),
    ("Cc1nnc(-c2cccc(C[C@H](NC(=O)c3cc(C(C)(C)C)nn3C)C(=O)NCC#N)c2)o1", 7.10),
    ("N#CCNC(=O)[C@H](Cc1cccc(-c2ccn[nH]2)c1)NC(=O)c1ccccc1", 6.50),
]

Read the next record carefully.
Find the measured pIC50: item `Cn1nc(C(C)(C)C)cc1C(=O)N[C@@H](Cc1cccc(-c2nnc(CN)o2)c1)C(=O)NCC#N` , target or system UniProt P25774. 6.70

###

For Cathepsin K (Homo sapiens, UniProt P43235), measured IC50 is reported for the entries below.

The following molecules have reported results that may help.
# compound, IC50
rows = [
    ("N#CCNC(=O)[C@H](Cc1cccc(-c2cn[nH]c2)c1)NC(=O)c1ccccc1", "> 10 µM"),
    ("N#CCNC(=O)[C@H](Cc1cccc(-c2ccccn2)c1)NC(=O)c1ccccc1", "> 10 µM"),
    ("N#CCNC(=O)[C@H](Cc1cccc(-c2cccnn2)c1)NC(=O)c1ccccc1", "> 6.31 µM"),
]

Read the next record carefully.
Reported IC50 for `N#CCNC(=O)[C@H](Cc1cccc(-c2ccncc2)c1)NC(=O)c1ccccc1` : what is it? > 10 µM
